# study_target: PIK3CA (human)
# protocol: Enzyme Assay
Recorded measurements of IC50, one per entry
endpoint: IC50

sample_smiles=CC1(C)CCn2c(nc(N3CCOCC3)cc2=O)N1C[C@@H](O)c1ccccc1 study_target="PIK3CA (human)" result="1.92 µM"
sample_smiles=CC(C)OCCN1c2nc(N3CCOCC3)cc(=O)n2CC[C@@]1(C)C(F)(F)F study_target="PIK3CA (human)" result="0.088 µM"
sample_smiles=O=c1cc(N2CCOCC2)nc2n1CCC1(CC1)N2C[C@@H](O)c1ccccc1 study_target="PIK3CA (human)" result="0.931 µM"
sample_smiles=O=c1cc(N2CCOCC2)nc2n1CC[C@@H](C(F)(F)F)N2Cc1ccccc1 study_target="PIK3CA (human)" result="0.05 µM"
sample_smiles=O=c1cc(N2CCOCC2)nc2n1CC[C@@H](C(F)(F)F)N2Cc1ccc(Cl)s1 study_target="PIK3CA (human)" result="0.502 µM"
sample_smiles=C[C@@H]1COCCN1c1cc(=O)n2c(n1)N(Cc1ccc(Cl)s1)[C@H](C(F)(F)F)CC2 study_target="PIK3CA (human)" result="2.9 µM"

* * *

# study_target: PIK3CG (human) (UniProt P48736)
# Sequence (P48736 whole entry, looked up): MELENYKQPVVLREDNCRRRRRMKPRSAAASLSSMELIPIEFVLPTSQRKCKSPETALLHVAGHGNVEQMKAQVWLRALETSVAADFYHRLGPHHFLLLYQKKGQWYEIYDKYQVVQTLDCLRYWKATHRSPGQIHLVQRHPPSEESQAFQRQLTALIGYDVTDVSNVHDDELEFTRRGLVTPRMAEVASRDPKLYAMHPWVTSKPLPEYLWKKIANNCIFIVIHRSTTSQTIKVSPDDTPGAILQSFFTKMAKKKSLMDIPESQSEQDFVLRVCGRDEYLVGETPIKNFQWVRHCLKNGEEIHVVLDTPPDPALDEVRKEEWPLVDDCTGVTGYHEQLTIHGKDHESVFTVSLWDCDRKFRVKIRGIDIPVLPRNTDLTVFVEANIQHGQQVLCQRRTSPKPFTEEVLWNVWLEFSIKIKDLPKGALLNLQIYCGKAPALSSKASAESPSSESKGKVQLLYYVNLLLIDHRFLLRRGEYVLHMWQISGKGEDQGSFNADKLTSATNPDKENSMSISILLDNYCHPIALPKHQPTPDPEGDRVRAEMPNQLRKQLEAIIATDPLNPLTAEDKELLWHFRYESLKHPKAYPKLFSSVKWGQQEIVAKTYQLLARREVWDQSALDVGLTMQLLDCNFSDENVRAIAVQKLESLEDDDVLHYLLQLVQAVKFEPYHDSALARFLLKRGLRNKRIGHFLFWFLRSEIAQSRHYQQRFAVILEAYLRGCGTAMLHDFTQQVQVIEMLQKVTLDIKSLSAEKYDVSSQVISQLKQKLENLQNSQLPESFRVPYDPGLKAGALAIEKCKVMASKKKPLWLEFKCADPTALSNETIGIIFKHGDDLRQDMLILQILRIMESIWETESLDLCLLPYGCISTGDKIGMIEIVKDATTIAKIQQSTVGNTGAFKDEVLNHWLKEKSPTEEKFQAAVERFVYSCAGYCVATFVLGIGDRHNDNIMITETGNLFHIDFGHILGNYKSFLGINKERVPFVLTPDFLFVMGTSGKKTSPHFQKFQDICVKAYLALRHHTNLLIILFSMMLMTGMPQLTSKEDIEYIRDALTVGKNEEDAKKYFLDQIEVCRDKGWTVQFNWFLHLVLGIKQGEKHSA
endpoint: log10 IC50 (log10 of the value in µM)

sample_smiles=C[C@H]1COCCN1c1cc(=O)n2c(n1)N(Cc1ccc(Cl)s1)[C@H](C(F)(F)F)CC2 measured_number=0.26
sample_smiles=O=c1cc(N2CCOCC2)nc2n1CC[C@@H](C(F)(F)F)N2Cc1ccccc1 measured_number=0.20
sample_smiles=O=c1cc(N2CCOCC2)nc2n1CCC1(CC1)N2C[C@@H](O)c1ccccc1 measured_number=0.47
sample_smiles=O=c1cc(N2CCOCC2)nc2n1CC[C@@H](C(F)(F)F)N2c1ccccc1 measured_number=0.28
sample_smiles=O=c1cc(N2CCOCC2)nc2n1CC[C@@H](C(F)(F)F)N2CCc1ccccc1 measured_number=-0.97
sample_smiles=O=c1cc(N2CCOCC2)nc2n1CC[C@@H](C(F)(F)F)N2Cc1ccc(Cl)s1 measured_number=0.86
sample_smiles=O=c1cc(N2CCOCC2)nc2n1CC[C@@H](C(F)(F)F)N2C[C@@H](O)c1ccccc1 measured_number=-1.82

* * *

# collection of IC50 values tested on PIK3CD (Human) (UniProt O00329)
# Sequence (O00329 whole entry, looked up): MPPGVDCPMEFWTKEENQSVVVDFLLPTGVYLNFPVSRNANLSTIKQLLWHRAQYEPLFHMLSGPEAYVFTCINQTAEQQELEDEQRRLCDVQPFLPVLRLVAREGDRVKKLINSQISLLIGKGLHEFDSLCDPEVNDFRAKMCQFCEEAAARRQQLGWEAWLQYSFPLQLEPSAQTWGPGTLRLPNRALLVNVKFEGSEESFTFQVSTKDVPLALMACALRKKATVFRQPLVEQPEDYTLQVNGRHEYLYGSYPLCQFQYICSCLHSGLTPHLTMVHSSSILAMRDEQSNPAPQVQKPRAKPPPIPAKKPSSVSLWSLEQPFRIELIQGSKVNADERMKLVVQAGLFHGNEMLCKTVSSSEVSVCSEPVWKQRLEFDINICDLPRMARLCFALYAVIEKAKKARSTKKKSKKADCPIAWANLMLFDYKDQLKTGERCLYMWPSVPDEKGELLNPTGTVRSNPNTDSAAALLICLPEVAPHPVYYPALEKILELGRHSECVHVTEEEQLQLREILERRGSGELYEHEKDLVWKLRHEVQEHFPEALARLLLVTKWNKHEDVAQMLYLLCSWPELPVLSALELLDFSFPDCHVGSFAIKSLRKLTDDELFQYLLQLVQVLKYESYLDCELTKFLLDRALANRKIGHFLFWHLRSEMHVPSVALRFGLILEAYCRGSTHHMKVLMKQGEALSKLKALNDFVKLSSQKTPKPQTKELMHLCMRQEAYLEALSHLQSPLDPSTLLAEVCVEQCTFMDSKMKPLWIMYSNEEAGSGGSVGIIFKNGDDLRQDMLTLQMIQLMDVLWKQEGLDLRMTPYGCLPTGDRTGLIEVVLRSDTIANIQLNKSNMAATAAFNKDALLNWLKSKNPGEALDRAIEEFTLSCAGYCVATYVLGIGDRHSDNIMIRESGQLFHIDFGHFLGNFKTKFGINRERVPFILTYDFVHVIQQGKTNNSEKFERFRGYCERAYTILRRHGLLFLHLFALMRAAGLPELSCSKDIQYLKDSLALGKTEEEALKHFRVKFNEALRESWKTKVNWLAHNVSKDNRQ
endpoint: IC50 (nM)

sample_smiles=O=c1cc(N2CCOCC2)nc2n1CC[C@@H](C(F)(F)F)N2Cc1ccccc1 endpoint=IC50 measured_number=53
sample_smiles=CC1(C)CCn2c(nc(N3CCOCC3)cc2=O)N1C[C@@H](O)c1ccccc1 endpoint=IC50 measured_number=1170
sample_smiles=CC(C)OCCN1c2nc(N3CCOCC3)cc(=O)n2CC[C@@]1(C)C(F)(F)F endpoint=IC50 measured_number=27
sample_smiles=C[C@@H]1COCCN1c1cc(=O)n2c(n1)N(Cc1ccc(Cl)s1)[C@H](C(F)(F)F)CC2 endpoint=IC50 measured_number=1300
sample_smiles=O=c1cc(N2CCOCC2)nc2n1CCC1(CC1)N2C[C@@H](O)c1ccccc1 endpoint=IC50 measured_number=606
sample_smiles=O=c1cc(N2CCOCC2)nc2n1CC[C@@H](C(F)(F)F)N2c1cc(F)cc(F)c1 endpoint=IC50 measured_number=270
sample_smiles=O=c1cc(N2CCOCC2)nc2n1CC[C@@H](C(F)(F)F)N2CCc1ccccc1 endpoint=IC50 measured_number=14
sample_smiles=O=c1cc(N2CC3CCC(C2)O3)nc2n1CC[C@@H](C(F)(F)F)N2Cc1ccc(Cl)s1 endpoint=IC50 measured_number=3790

* * *

Reported IC50 values, PIK3CB (Human).
endpoint: IC50 (nM)

sample_smiles=O=c1cc(N2CCOCC2)nc2n1CC[C@@H](C(F)(F)F)N2C[C@@H](O)c1ccccc1 study_target="PIK3CB (Human)" uom=nM measured_number=16
sample_smiles=CC(C)OCCN1c2nc(N3CCOCC3)cc(=O)n2CC[C@@]1(C)C(F)(F)F study_target="PIK3CB (Human)" uom=nM measured_number=34
sample_smiles=O=c1cc(N2CCOCC2)nc2n1CC[C@@H](C(F)(F)F)N2c1cc(F)cc(F)c1 study_target="PIK3CB (Human)" uom=nM measured_number=340
